Hello, the source for this data is the RNAGym collection of RNA variant scans (doi:10.7554/elife.90254), in case you need it.

B1: LINE1-full (parent)
chain: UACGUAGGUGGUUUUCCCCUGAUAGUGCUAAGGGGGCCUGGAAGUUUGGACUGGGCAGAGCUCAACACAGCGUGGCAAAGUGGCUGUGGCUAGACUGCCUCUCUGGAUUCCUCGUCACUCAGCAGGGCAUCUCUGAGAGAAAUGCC

variants of: B1; test: self-cleavage, relative activity (ratio to wild type); higher = more cleavage; in vitro, sequencing; the parent is a self-cleaving ribozyme
I'd be grateful if you could share measured self-cleavage for these entries.
Respond using a number only.

query: Consider the variant U13C U20C and give its measured self-cleavage.
result: 1.06

query: Consider the variant A42G U85C and give its measured self-cleavage.
result: 0.38

query: Consider the variant U29G U104A and give its measured self-cleavage.
result: 1.6

query: Consider the variant C63A U108C and give its measured self-cleavage.
result: 0.08

query: Consider the variant A65G C84U and give its measured self-cleavage.
result: 0.06

query: Consider the variant A78C U100C and give its measured self-cleavage.
result: 2.41

query: Consider the variant U45G C113A and give its measured self-cleavage.
result: 0.98

query: Consider the variant G70A U91A and give its measured self-cleavage.
result: 0.1

query: Consider the variant A2U A64U and give its measured self-cleavage.
result: 0.37

query: Consider the variant G35A A117U and give its measured self-cleavage.
result: 0.56

query: Consider the variant U15C G32C and give its measured self-cleavage.
result: 1.16

query: Consider the variant C3U A24U and give its measured self-cleavage.
result: 1.15

query: Consider the variant U29C U109C and give its measured self-cleavage.
result: 0.91

query: Consider the variant C71U C101A and give its measured self-cleavage.
result: 1.14

query: Consider the variant A65G G135A and give its measured self-cleavage.
result: 0.1

query: Consider the variant A121U G125A and give its measured self-cleavage.
result: 1.23

query: Consider the variant U20G G74A and give its measured self-cleavage.
result: 1.29

query: Consider the variant A22U A92G and give its measured self-cleavage.
result: 0.05

query: Consider the variant C61G A77U and give its measured self-cleavage.
result: 0.04

query: Consider the variant A67C U119C and give its measured self-cleavage.
result: 0.09

query: Consider the variant G7A U52A and give its measured self-cleavage.
result: 0.89

query: Consider the variant C37A U39C and give its measured self-cleavage.
result: 1.35
